# Run description: A CellTox Green Cytotoxicity Assay to monitor cytotoxicity in HepG2 cells - 8 hour (AID 1224890); also: nearly all actives have a fitted effect of over 45% in size
# Condition label: CellTox Green fluorescence; series mostly up to 76.8 µM
Records with an inconclusive call do not appear. Activity calls are given as the source filed them. Calls follow the shape of the dose curve; as a rule, active = well fitted activation curve with a large enough effect in the repeat runs; inconclusive = weak or mixed curves; inactive = flat fitted curve, though single readings scatter.
Measured endpoint: cytotoxicity increase

INSERT INTO measurements (molecule, measured_endpoint, observed) VALUES
  ('NC1CCN(c2nc3c(cc2F)c(=O)c(C(=O)O)cn3-c2ccc(F)cc2F)C1 (stereo not given)', 'cytotoxicity increase', 'inactive'),
  ('Cn1c(NCCN(CCO)CCCc2ccc([N+](=O)[O-])cc2)cc(=O)n(C)c1=O', 'cytotoxicity increase', 'inactive'),
  ('CC1CCc2cc(F)cc3c(=O)c(C(=O)O)cn1c23 (stereo not given)', 'cytotoxicity increase', 'inactive'),
  ('CC(=O)O[C@@H]1C(=O)O[C@@H]2[C@H]1OC(=O)[C@@H]2OC(C)=O', 'cytotoxicity increase', 'inactive'),
  ('CC(C(=O)O)c1ccc(C(=O)c2ccccc2)s1 (stereo not given)', 'cytotoxicity increase', 'inactive');

====

# System name: Cytochrome P450 1A2 (Homo sapiens)
# Run description: Cytochrome P450 Family 1 Subfamily A Member 2 (CYP1A2) small molecule antagonists: luciferase reporter qHTS assay (AID 1671199); also: nearly all actives have a fitted effect of over 50% in size; also: potency is read from the fitted curve at half-maximal effect
# Condition label: P450-Glo CYP1A2 enzyme, luciferin luminescence, 1 h; series mostly up to 115 µM
Records with an inconclusive call do not appear. Active and inactive are the calls of the source. The call rests on the fitted dose curve; in most records, active means well fitted inhibition curve with a large enough effect in the repeat runs; inconclusive means weak or mixed curves; inactive means no such curve, though single readings can be large or run the other way.
Measured endpoint: Potency

INSERT INTO measurements (molecule, observed) VALUES
  ('CC(=O)/C=C/C1C(C)=CCCC1(C)C (stereo not given)', 'inactive'),
  ('CN(C)CCCNCCCN', '35.4 µM (active)'),
  ('CC(C)CC=O', 'inactive'),
  ('O=C1CCCCCO1', '35.9 µM (active)'),
  ('CCCC[C@H]1CN(CC2CCOCC2)C(=O)OC12CCN(C1(C)CCN(C(=O)c3c(C)ncnc3C)CC1)CC2', '35.2 µM (active)'),
  ('Cc1ccc2c(ccc3ccccc32)c1', '3.18 µM (active)'),
  ('CC(=O)c1ccc2c(c1)[C@H](NC(=O)c1ccc(F)cc1)[C@@H](O)C(C)(C)O2', '33.5 µM (active)'),
  ('Oc1ccc2c(c1)OCO2', '31.5 µM (active)'),
  ('CC(C)(C)c1cc(CO)cc(C(C)(C)C)c1O', 'inactive'),
  ('Nc1nc(N)c2nc(CNc3ccc(C(=O)N[C@@H](CCC(=O)O)C(=O)O)cc3)cnc2n1', 'inactive'),
  ('c1ccc(OCc2ccc(CCCN3CCOCC3)cc2)cc1', 'inactive'),
  ('CCC(C)N(C)C(=O)c1cc2ccccc2c(-c2ccccc2Cl)n1 (stereo not given)', 'inactive'),
  ('FC(F)(F)C(F)(F)C(F)(F)C(F)(F)C(F)(F)C(F)(F)CCI', 'inactive'),
  ('CN1CCN(C2=Nc3cc(Cl)ccc3Nc3ccccc32)CC1', 'inactive'),
  ('CC(C)c1ccccc1C(C)C', '35.6 µM (active)'),
  ('CCCCc1cc2ccccc2c(OCCN(C)C)n1', '0.436 µM (active)'),
  ('C=CC[N+]1([C@H]2C[C@H]3[C@@H]4CC[C@H]5C[C@H](OC(C)=O)[C@@H](N6CCCCC6)C[C@]5(C)[C@H]4CC[C@]3(C)[C@H]2OC(=O)CC)CCCCC1', 'inactive'),
  ('CC(=O)/C(C)=C/C1C(C)=CCCC1(C)C (stereo not given)', '79.6 µM (active)'),
  ('CC(=O)N(CC(=O)N(C)C)c1ccccc1', 'inactive'),
  ('CCCCOC(O)CC (stereo not given)', 'inactive'),
  ('O=[N+]([O-])c1cc[n+]([O-])cc1', '31.7 µM (active)'),
  ('O=C(O)Cn1c(C(=O)Nc2nc(-c3ccccc3Cl)cs2)cc2ccccc21', 'inactive'),
  ('CC/C(=C\C(=N/O)C(N)=O)C(C)[N+](=O)[O-] (stereo not given)', 'inactive'),
  ('CC(=O)c1c(C)c([N+](=O)[O-])c(C(C)(C)C)c([N+](=O)[O-])c1C', '11.2 µM (active)'),
  ('Cc1cc(CC(=O)O)c(C)n1-c1ccc(Cl)cc1', 'inactive');

====

# Run description: qHTS assay for identifying genotoxic compounds that show differential cytotoxicity against isogenic chicken DT40 cell lines with known DNA damage response pathways - wild type cell line (AID 743012); also: nearly all actives have a fitted effect of over 60% in size
# Condition label: DT40 wild type chicken cells viability, CellTiter-Glo, 40 h; series mostly up to 68.4 µM
Inconclusive results are not listed. The source made the active and inactive calls. Calls follow the shape of the dose curve; as a rule, active = well fitted cell-killing curve with a large enough effect in the repeat runs; inconclusive = weak or mixed curves, or effect the other way; inactive = no such curve, though single readings can be large or run the other way.
Outcomes: active, inactive

INSERT INTO assay_data (compound, label_class) VALUES
  ('CC(=O)[C@@]1(O)CC[C@H]2[C@@H]3C[C@H](C)C4=CC(=O)CC[C@]4(C)[C@H]3CC[C@@]21C', 'active'),
  ('O=C(Nc1ccccc1)OCC(CN1CCCCC1)OC(=O)Nc1ccccc1 (configuration not stated)', 'inactive'),
  ('CC(C)NCC(O)c1cc(O)cc(O)c1 (configuration not stated)', 'inactive'),
  ('O=C1CCCCCO1', 'inactive'),
  ('Cc1ccc(C(C)c2ccc(C)c(C)c2)cc1C', 'inactive'),
  ('CC1CCc2cc(F)cc3c(=O)c(C(=O)O)cn1c23 (configuration not stated)', 'inactive'),
  ('O=C(NS(=O)(=O)/C=C/c1cccs1)c1ccc(F)cc1Br', 'inactive'),
  ('CCOC(=S)SSC(=S)OCC', 'inactive'),
  ('COc1cc(C(C)(C)C)c(O)c(C(C)(C)C)c1', 'active'),
  ('Cc1ccc(C)o1', 'inactive'),
  ('CCOC(=O)CC(C)C', 'inactive'),
  ('CC(C(=O)O)c1ccc(-c2ccccc2)c(F)c1 (configuration not stated)', 'inactive'),
  ('CCCCCC/C=C/C=O', 'inactive'),
  ('O=C(O)/C=C/c1cnc[nH]1', 'inactive'),
  ('Cc1c(Cn2ccnc2)c2ccccc2n1CCC(=O)O', 'inactive'),
  ('Cc1occc1S', 'active'),
  ('NCc1ccccc1', 'inactive'),
  ('Nc1ccc(C(=O)Nc2ccccc2N)cc1', 'active'),
  ('O=C(O)C(c1ccc(Cl)cc1)c1ccc(Cl)cc1', 'inactive'),
  ('CCCCCCCC/C=C\CCCCCCCC(N)=O', 'inactive'),
  ('O=S1(=O)c2cccc3cccc(c23)N1CCCN1CCN(c2ccc(F)cc2)CC1', 'active'),
  ('COc1ccc(C(C)=O)cc1', 'inactive'),
  ('NC[C@H]1O[C@H](O[C@H]2[C@H](O)[C@@H](O[C@H]3O[C@H](CO)[C@@H](O)[C@H](N)[C@H]3O)[C@H](N)C[C@@H]2N)[C@H](O)[C@@H](O)[C@@H]1O', 'inactive'),
  ('O=C(c1ccccc1)c1ccc2n1CCC2C(=O)O (configuration not stated)', 'inactive'),
  ('N#Cc1c(F)cccc1F', 'inactive'),
  ('CCOC(=O)[C@H](CCc1ccccc1)N[C@H]1CCc2ccccc2N(CC(=O)O)C1=O', 'active'),
  ('CCCOc1ccc2nc(NC(=O)OC)[nH]c2c1', 'active');

====

# Run description: qHTS assay to identify small molecule agonists of the estrogen receptor alpha (ER-alpha) signaling pathway in the presence of an antagonist - cell viability counter screen (AID 1259386);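 also: cells exposed to compounds for 22 h at 37 °C before the viability read; nearly all actives have a fitted effect of over 30% in size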
# Condition label: VM7Luc4E2 viability, CellTiter-Fluor fluorescence, 22 h; series mostly up to 92.4 µM
Inconclusive results are not listed. Activity calls are given as the source filed them. Calls follow the shape of the dose curve; as a rule, active = well fitted cell-killing curve with a large enough effect in the repeat runs; inconclusive = weak or mixed curves, or effect the other way; inactive = no such curve, though single readings can be large or run the other way.
Measured endpoint: activity change, negative = cytotoxicity

INSERT INTO measurements (molecule, observed) VALUES
  ('O=C(NS(=O)(=O)/C=C/c1cccs1)c1ccc(F)cc1Br', 'inactive'),
  ('N[C@H]1C(O)O[C@H](CO)[C@H](O)[C@@H]1O (stereo partly drawn)', 'inactive'),
  ('O=C(O)Cc1sc(-c2ccccc2)nc1-c1ccc(Cl)cc1', 'inactive'),
  ('CN1CCC(=C2c3ccccc3CCc3sccc32)CC1', 'inactive'),
  ('CC(C)CCCC(C)CCO (stereo not drawn)', 'inactive'),
  ('CCCCOC(=O)c1ccccc1C(=O)OCC(CC)CCCC (stereo not drawn)', 'inactive'),
  ('CN(C)C/C=C(/c1ccc(Br)cc1)c1cccnc1', 'inactive'),
  ('c1ccc(-c2nc[nH]c2-c2ccccc2)cc1', 'inactive'),
  ('CCN(CC)CCc1nc(-c2ccccc2)no1', 'inactive'),
  ('Nc1cnn([C@@H]2O[C@H](CO)[C@@H](O)[C@H]2O)c(=O)n1', 'inactive'),
  ('CC(=O)NCCCS(=O)(=O)O', 'inactive'),
  ('CCCCOCCOCCOCCOCCO', 'inactive'),
  ('CCCCCCCCCO', 'inactive');
